- EXPERIMENTAL TARGET: Folylpolyglutamate synthase (Sus scrofa)
- ASSAY DETAILS: Inhibitory activity against hog liver Folyl polyglutamate synthetase (FPGS)
ATTRIBUTE MEASURED: Ki (nM)
Write the number in nM without appending the unit.

// worked examples, Ki included
NCCCC(NC(=O)c1ccc(NCc2ccc3nc(N)[nH]c(=O)c3c2C(F)(F)F)cc1)C(=O)O (centres undefined)
8.8
NCCCC(NC(=O)c1ccc(CNc2ccc3nc(N)[nH]c(=O)c3c2C(F)(F)F)cc1)C(=O)O (centres undefined)
11
NCCCC(NC(=O)c1ccc(CNc2ccc3nc(N)[nH]c(=O)c3c2F)cc1)C(=O)O (centres undefined)
900

Here is the next item to consider.
Problem: Name the recorded Ki of the item NCCCC(NC(=O)c1ccc(CNc2ccc3nc(N)[nH]c(=O)c3c2Cl)cc1)C(=O)O (centres undefined) in your answer.
Solution: 500
